- System: TRAMP cell line cells
- experimental-protocol: Cellular uptake / cell killing by luminescence, TRAMP
- Format: cell-based
- details: Mus musculus, FIG. 5D
pIC50: −log10 of the molar value.

>  <molecule>
Cc1cc(C(C)N(CCN)c2ccccc2)c2nc(N3CCOCC3)cc(=O)n2c1 (centres unmarked)

>  <pIC50>
4.76

$$$$
>  <molecule>
Cc1cc(C(C)Nc2ccccc2)c2nc(N3CCOCC3)cc(=O)n2c1 (centres unmarked)

>  <pIC50>
4.09

$$$$

* * *

- tested-system: PI3Kβ isoform (Homo sapiens, UniProt P42338)
- Sequence (P42338 whole entry, canonical isoform): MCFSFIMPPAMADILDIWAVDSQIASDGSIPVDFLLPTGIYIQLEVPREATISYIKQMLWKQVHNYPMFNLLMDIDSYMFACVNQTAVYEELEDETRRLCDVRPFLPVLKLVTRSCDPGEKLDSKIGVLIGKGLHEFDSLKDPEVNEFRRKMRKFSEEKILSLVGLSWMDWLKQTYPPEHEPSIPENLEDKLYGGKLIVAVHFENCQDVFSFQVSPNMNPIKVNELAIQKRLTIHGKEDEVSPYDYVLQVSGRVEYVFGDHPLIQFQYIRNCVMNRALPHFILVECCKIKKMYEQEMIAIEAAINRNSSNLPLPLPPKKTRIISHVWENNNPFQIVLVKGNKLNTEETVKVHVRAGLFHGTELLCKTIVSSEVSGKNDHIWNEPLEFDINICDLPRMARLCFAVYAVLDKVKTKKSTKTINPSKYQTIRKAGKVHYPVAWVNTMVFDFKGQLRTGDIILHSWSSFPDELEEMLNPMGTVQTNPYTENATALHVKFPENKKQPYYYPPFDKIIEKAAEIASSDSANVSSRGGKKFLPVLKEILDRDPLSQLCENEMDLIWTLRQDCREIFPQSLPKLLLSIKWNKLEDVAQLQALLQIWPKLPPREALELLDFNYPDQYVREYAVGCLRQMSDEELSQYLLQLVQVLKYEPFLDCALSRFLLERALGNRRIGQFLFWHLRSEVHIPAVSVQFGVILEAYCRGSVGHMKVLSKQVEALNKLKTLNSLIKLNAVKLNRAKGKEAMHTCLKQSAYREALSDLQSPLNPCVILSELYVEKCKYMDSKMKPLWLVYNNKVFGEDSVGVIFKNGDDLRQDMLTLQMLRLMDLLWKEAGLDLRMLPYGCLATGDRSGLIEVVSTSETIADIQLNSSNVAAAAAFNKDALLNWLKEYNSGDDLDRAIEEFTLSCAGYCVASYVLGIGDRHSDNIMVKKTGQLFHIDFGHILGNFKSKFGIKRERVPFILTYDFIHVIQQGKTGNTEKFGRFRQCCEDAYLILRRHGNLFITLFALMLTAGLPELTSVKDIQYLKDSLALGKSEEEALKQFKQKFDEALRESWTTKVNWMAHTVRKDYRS
- Sequence (P27986 whole entry partner, canonical isoform): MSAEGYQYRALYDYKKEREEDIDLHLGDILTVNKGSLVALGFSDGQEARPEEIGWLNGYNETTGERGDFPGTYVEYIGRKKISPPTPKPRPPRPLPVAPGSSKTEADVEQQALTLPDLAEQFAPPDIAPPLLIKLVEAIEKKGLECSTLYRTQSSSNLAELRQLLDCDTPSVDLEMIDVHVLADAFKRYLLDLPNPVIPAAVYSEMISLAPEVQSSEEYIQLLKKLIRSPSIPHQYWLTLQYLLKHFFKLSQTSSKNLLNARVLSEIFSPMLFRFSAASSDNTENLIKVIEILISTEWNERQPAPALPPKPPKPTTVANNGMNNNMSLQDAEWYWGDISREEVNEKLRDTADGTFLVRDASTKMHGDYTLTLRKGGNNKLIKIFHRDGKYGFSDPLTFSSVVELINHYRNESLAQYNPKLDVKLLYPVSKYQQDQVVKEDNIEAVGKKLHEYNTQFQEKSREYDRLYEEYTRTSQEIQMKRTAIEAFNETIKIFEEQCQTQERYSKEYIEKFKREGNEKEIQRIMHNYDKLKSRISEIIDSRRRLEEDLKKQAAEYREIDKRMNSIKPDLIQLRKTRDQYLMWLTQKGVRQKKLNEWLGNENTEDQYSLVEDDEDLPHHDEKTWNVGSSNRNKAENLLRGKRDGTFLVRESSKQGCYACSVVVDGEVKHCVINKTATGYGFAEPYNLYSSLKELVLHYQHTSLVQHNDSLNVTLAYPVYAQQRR
- experimental-protocol: Inhibition of PI3Kβ isoform, dose response curves (FIG. 4B)

>  <molecule>
Cc1cc(C(C)N(CCN)c2ccccc2)c2nc(N3CCOCC3)cc(=O)n2c1 (stereo not shown)

>  <IC50>
9.48 nM

$$$$
